Data origin, for the record: paper PMC10905675

target: T1, CDK9/cyclin T1 (Homo sapiens, UniProt P50750); assay: Nanosyn biochemical assay; settings: Supp Fig S1D, representative dose response curve, read-out: IC50 CDK9 - Cyclin T1
T1 construct: purchased Carna 04-110
T1 sequence (P50750 whole entry): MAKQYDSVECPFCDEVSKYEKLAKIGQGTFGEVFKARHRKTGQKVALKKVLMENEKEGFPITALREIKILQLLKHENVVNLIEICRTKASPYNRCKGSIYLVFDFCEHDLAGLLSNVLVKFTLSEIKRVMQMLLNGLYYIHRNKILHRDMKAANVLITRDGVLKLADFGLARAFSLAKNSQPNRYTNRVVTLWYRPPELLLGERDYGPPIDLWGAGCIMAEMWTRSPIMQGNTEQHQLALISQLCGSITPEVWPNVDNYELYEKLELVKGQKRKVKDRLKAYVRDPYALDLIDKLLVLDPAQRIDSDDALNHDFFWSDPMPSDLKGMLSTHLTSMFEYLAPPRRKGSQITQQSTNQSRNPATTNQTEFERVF
T1 sequence (O60563 whole entry partner): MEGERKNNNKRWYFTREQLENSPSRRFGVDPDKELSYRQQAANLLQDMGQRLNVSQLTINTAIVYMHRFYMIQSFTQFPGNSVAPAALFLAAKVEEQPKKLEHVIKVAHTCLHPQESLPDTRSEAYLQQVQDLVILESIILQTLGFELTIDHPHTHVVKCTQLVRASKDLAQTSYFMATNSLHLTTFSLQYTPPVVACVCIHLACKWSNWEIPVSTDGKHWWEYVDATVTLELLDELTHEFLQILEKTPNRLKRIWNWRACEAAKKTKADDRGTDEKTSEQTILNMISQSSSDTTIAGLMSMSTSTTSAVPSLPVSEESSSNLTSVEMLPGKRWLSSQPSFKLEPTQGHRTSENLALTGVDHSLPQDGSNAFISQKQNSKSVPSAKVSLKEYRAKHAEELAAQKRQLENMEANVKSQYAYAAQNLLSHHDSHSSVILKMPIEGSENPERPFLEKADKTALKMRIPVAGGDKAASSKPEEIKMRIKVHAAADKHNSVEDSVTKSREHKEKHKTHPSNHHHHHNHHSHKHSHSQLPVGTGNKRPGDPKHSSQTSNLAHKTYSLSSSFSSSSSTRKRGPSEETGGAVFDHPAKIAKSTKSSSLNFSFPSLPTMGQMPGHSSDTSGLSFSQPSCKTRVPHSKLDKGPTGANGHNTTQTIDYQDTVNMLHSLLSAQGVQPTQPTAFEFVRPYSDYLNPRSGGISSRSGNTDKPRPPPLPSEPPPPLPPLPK

structure | IC50 (µM)
NS(=O)(=O)c1ccc(Nc2ncc3cc4n(c3n2)C2(CCCCC2)C(=O)NN4)cc1 | 0.0386

###

target: CDK5/p25 (Homo sapiens, UniProt Q00535); assay: Nanosyn biochemical assay; details: ATP at Km, value (SEM), read-out: IC50 (nmol/L) CDK5/p25
Sequence (Q00535 whole entry): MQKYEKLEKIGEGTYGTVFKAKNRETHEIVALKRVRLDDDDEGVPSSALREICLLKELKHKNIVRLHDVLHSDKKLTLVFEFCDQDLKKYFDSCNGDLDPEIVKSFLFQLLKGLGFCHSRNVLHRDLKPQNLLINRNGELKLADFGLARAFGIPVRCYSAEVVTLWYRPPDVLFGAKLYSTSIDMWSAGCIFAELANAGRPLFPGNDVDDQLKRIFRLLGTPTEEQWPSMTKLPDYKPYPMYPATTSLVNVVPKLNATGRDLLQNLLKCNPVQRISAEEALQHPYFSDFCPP
Sequence (Q15078 99-307 partner limits assumed): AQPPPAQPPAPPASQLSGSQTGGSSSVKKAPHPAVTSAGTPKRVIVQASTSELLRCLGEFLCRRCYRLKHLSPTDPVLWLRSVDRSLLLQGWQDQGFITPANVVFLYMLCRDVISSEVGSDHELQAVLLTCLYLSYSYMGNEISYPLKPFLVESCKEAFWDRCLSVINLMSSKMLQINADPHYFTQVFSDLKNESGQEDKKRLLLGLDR
pIC50: −log10 of the molar value.

compound | target entity | pIC50
CN1CCN(c2ccc(Nc3ncc4cc5n(c4n3)C3(CCCCC3)CNC5=O)nc2)CC1 [Trilaciclib, reference compound] | CDK5/p25 (Homo sapiens, UniProt Q00535) | 5.77
NS(=O)(=O)c1ccc(Nc2ncc3cc4n(c3n2)C2(CCCCC2)CN=C4)cc1 | CDK5/p25 (Homo sapiens, UniProt Q00535) | 9.40
NS(=O)(=O)c1ccc(Nc2ncc3cc4n(c3n2)C2(CCCCC2)C(=O)NN4)cc1 | CDK5/p25 (Homo sapiens, UniProt Q00535) | 7.67

###

experiment: Microsomal stability assay; format: in vitro ADME; conditions: male, CD-1, liver microsomes, Mouse microsomes, 60 min incubation

molecule | readout units | relation symbol | half-life at 1 µmol/L
NS(=O)(=O)c1ccc(Nc2ncc3cc4n(c3n2)C2(CCCCC2)C(=O)NN4)cc1 [INX-315] | min | = | 26.4
CN1CCN(c2ccc(Nc3ncc4cc5n(c4n3)C3(CCCCC3)CNC5=O)nc2)CC1 [Trilaciclib, reference compound] | min | = | 28
NS(=O)(=O)c1ccc(Nc2ncc3cc4n(c3n2)C2(CCCCC2)CN=C4)cc1 [Compound B] | min | < | 10
C[C@@H]1NC(=O)C2(CCCCC2)n2c1cc1cnc(Nc3ccc(S(N)(=O)=O)cc3)nc12 [Compound C] | min | < | 10

###

Target: CDK5 (Homo sapiens, UniProt Q00535)
Construct: purchased ThermoFisher PV3000
Sequence (Q00535 whole entry): as the sequence (Q00535 whole entry) above
Sequence (Q15078 2-307 partner limits assumed): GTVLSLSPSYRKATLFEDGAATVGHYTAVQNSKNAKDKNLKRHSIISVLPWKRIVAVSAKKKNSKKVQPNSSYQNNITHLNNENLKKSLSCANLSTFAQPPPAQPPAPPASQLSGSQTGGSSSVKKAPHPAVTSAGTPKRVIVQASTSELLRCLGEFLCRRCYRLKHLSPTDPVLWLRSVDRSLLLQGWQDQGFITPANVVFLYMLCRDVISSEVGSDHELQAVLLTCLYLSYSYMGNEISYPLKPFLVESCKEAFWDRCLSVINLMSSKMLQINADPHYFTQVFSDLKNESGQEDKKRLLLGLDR
Test: Nanosyn biochemical assay
Conditions: Supp Fig S1C, value (SEM), read-out: IC50 (nM) CDK5
Experimental: Compounds were tested in kinase assays (Nanosyn, Inc.). The assays were completed using microfluidic kinase detection technology (Caliper Assay Platform). The compounds were tested in 12-point dose–response format in singlicate at the Km for ATP. Phosphoacceptor substrate peptide concentration used was 1 µmol/L and staurosporine was used as the reference compound for all assays. Details for individual Nanosyn assays performed are provided here: […]
reported metric: IC50 (nM)

structure | readout units | assay value
NS(=O)(=O)c1ccc(Nc2ncc3cc4n(c3n2)C2(CCCCC2)C(=O)NN4)cc1 | nM | 23.1

###

biological target: CDK5 (Homo sapiens, UniProt Q00535); construct: purchased ThermoFisher PV3000; experiment: Nanosyn biochemical assay; details: ATP at Km, value (SEM), read-out: IC50 (nmol/L) CDK5
pIC50: −log10 of the molar value.
reported metric: pIC50

compound | reported metric | assay value
NS(=O)(=O)c1ccc(Nc2ncc3cc4n(c3n2)C2(CCCCC2)C(=O)NN4)cc1 | pIC50 | 7.64
NS(=O)(=O)c1ccc(Nc2ncc3cc4n(c3n2)C2(CCCCC2)CN=C4)cc1 | pIC50 | 9.30
C[C@@H]1NC(=O)C2(CCCCC2)n2c1cc1cnc(Nc3ccc(S(N)(=O)=O)cc3)nc12 | pIC50 | 7.30
CN1CCN(c2ccc(Nc3ncc4cc5n(c4n3)C3(CCCCC3)CNC5=O)nc2)CC1 [Trilaciclib, reference compound] | pIC50 | 5.91
